Target: 3',5'-cyclic-AMP phosphodiesterase 4A (Homo sapiens, UniProt P27815)
Sequence (P27815 whole entry): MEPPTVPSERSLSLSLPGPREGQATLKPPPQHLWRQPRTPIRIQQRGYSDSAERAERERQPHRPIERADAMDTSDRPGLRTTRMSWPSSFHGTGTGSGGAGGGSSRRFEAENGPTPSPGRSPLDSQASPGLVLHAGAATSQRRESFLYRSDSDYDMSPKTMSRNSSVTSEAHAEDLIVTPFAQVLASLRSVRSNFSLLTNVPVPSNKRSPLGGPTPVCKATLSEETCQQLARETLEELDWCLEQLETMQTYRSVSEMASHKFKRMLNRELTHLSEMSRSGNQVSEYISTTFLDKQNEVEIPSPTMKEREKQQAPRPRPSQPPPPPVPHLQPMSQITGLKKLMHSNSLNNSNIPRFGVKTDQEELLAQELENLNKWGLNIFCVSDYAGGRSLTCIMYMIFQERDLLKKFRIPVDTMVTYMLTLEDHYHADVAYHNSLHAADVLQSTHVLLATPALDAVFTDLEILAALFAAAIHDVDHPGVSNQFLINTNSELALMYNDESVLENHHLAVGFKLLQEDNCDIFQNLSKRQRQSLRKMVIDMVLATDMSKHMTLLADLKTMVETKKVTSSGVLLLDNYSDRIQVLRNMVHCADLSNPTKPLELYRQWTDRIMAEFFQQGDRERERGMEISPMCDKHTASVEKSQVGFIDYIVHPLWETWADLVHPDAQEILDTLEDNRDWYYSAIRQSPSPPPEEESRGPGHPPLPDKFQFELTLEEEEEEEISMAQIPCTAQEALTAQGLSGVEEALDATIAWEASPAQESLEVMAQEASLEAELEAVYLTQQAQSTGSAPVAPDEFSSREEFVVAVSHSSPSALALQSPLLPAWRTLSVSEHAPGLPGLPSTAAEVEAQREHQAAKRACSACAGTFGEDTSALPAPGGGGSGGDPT
Experiment: PDE4A activity assessed using human recombinant purified GST-PDE4A248
pIC50: −log10 of the molar value.
reported.metric: pIC50

Solved entries (count: 6):
{"columns": ["mol", "tested.target", "observed.result"],
 "data": [
  ["COc1ccc(-c2ccc(-c3ccncc3)o2)cc1OC1CCCC1", "3',5'-cyclic-AMP phosphodiesterase 4A (Homo sapiens, UniProt P27815)", 7.19],
  ["COc1ccc(-c2ccc(-c3ccc4ccccc4n3)o2)cc1OC1CCCC1", "3',5'-cyclic-AMP phosphodiesterase 4A (Homo sapiens, UniProt P27815)", 6.72],
  ["c1ccc(-c2cc(N3CCOCC3)c(-c3ccccc3)o2)cc1", "3',5'-cyclic-AMP phosphodiesterase 4A (Homo sapiens, UniProt P27815)", 5.64],
  ["COc1ccc(-c2oc(-c3ccccn3)cc2S(=O)(=O)c2ccccc2)cc1OC1CCCC1", "3',5'-cyclic-AMP phosphodiesterase 4A (Homo sapiens, UniProt P27815)", 6.11],
  ["COc1ccc(-c2cc(S(=O)(=O)c3ccccc3)c(-c3ccccn3)o2)cc1OC1CCCC1", "3',5'-cyclic-AMP phosphodiesterase 4A (Homo sapiens, UniProt P27815)", 6.13],
  ["COc1ccc(-c2oc(-c3ccccn3)cc2C(=O)c2ccccc2)cc1OC1CCCC1", "3',5'-cyclic-AMP phosphodiesterase 4A (Homo sapiens, UniProt P27815)", 6.23]
]}

a = COc1ccc(-c2ccc(-c3ccc(OC)c(OC4CCCC4)c3)o2)cc1OC1CCCC1
b = COc1ccc(-c2cc(C(C)=O)c(-c3ccc(OC)c(OC)c3)o2)cc1OC
c = COc1ccc(-c2ccc(-c3ccc(OC)c(OC)c3)o2)cc1OC
Rank items: key pIC50, increasing. Labels, ranked as asked. c, b, a
(c: 6.25, b: 6.92, a: 7.36)

A = O=C(c1ccccc1)c1cc(-c2ccccc2)oc1-c1ccccc1
B = COc1ccc(-c2ccc(-c3ccccn3)o2)cc1OC1CCCC1
Could you point out whether the larger pIC50 belongs to A or to B ? Respond with the label that goes with your answer. B
